Measured pIC50 values are reported for all entries that follow.
target: Prostaglandin G/H synthase 1 (Rattus norvegicus); assay: Inhibition of rat seminal vesicle COX-1 using arachidonic acid as substrate assessed as reduction of PGG2 to PGH2 incubated for 1 min prior to substrate addition measured after 25 secs by chromogenic assay
Sequence (Q63921 whole entry): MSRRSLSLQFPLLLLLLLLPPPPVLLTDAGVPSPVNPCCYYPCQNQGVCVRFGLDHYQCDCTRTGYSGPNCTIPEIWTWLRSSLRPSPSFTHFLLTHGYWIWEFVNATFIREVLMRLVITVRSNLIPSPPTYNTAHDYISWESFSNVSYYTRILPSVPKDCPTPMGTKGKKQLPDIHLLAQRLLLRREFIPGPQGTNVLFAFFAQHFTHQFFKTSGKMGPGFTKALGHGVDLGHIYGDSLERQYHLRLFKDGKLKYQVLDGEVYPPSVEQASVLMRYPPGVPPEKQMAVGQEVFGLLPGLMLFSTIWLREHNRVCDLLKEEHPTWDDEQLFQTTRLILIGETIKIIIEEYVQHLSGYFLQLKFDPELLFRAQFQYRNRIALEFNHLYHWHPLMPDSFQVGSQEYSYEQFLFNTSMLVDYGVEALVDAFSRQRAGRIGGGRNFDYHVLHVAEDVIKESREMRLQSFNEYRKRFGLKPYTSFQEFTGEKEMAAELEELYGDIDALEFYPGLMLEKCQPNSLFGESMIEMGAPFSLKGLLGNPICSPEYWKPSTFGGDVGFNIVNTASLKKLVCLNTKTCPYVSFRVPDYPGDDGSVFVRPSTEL
Please treat pIC50 as minus the base-10 logarithm of the molar concentration.

# smiles-record, pIC50
data = [
    ("CCOC(=O)c1c(C)oc2ccc(Oc3ccccc3)cc12", 4.51),
    ("CCOC(=O)c1c(-c2ccccc2)oc2ccc(Oc3ccccc3)cc12", 4.37),
    ("CCOC(=O)c1c(C)oc2ccc(Oc3ccccc3C)cc12", 4.45),
]

// query Reported pIC50 for CCOC(=O)c1c(-c2ccccc2)oc2ccc(Oc3ccc(C)cc3)cc12 : what is it?
// result 4.58

// query Reported pIC50 for CCOC(=O)c1c(C)oc2ccc(Oc3ccc(OC)cc3)cc12 : what is it?
// result 4.42

// query Reported pIC50 for CCOC(=O)c1c(-c2ccccc2)oc2ccc(Oc3ccccc3C)cc12 : what is it?
// result 4.53
